- Protocol summary: HPLC retention time according to hydrophobicity
- Format: physicochemical
- Setup conditions: chromatographic, C18 5 μm 9.4 × 250 mm; A 0.1% trichloroacetic acid, B 0.1% trichloroacetic acid with 90% acetonitrile; linear 5% B to 50% B; 1 mL/min; 35 °C; 280 nm; varies according to hydrophobicity
Where a SMILES comes first, the peptide text is derived from it.
Each entry below carries its recorded Retention Time.
Parameter measured: Retention Time

{"Compound": "CSCC[C@H](NC=O)C(=O)N[C@H](C(=O)N[C@H](C(=O)NCC(=O)N[C@@H](CC(N)=O)C(=O)N[C@@H](C)C(=O)N[C@@H](CC(=O)O)C(=O)NP(=O)(OCCCN)OC[C@H]1O[C@@H](n2cnc3c(N)ncnc32)[C@H](O)[C@@H]1O)[C@@H](C)O)[C@@H](C)O (stereo partly drawn) [R2T] (HELM PEPTIDE1{[O=C[*:2]].M.T.T.G.N.A.[NCCCOP(=O)(NC(=O)[C@H](CC(=O)O)N[*:1])OC[C@H]1O[C@@H](n2cnc3c(N)ncnc32)[C@H](O)[C@@H]1O]}$$$$V2.0)", "Observed result": "17.418 min"}
{"Compound": "CSCC[C@H](NC=O)C(=O)N[C@@H](Cc1ccc(O)cc1)C(=O)N[C@H](C(=O)NCC(=O)N[C@@H](CC(N)=O)C(=O)N[C@@H](C)C(=O)N[C@@H](CC(=O)O)C(=O)NP(=O)(OCCCN)OC[C@H]1O[C@@H](n2cnc3c(N)ncnc32)[C@H](O)[C@@H]1O)[C@@H](C)O (stereo partly drawn) [R2Y] (HELM PEPTIDE1{[O=C[*:2]].M.Y.T.G.N.A.[NCCCOP(=O)(NC(=O)[C@H](CC(=O)O)N[*:1])OC[C@H]1O[C@@H](n2cnc3c(N)ncnc32)[C@H](O)[C@@H]1O]}$$$$V2.0)", "Observed result": "18.591 min"}
{"Compound": "CSCC[C@H](NC=O)C(=O)NCC(=O)N[C@H](C(=O)NCC(=O)N[C@@H](CC(N)=O)C(=O)N[C@@H](C)C(=O)N[C@@H](CC(=O)O)C(=O)NP(=O)(OCCCN)OC[C@H]1O[C@@H](n2cnc3c(N)ncnc32)[C@H](O)[C@@H]1O)[C@@H](C)O (stereo partly drawn) [R2G] (HELM PEPTIDE1{[O=C[*:2]].M.G.T.G.N.A.[NCCCOP(=O)(NC(=O)[C@H](CC(=O)O)N[*:1])OC[C@H]1O[C@@H](n2cnc3c(N)ncnc32)[C@H](O)[C@@H]1O]}$$$$V2.0)", "Observed result": "17.253 min"}

====

- Protocol summary: Remaining amount by RP-HPLC after pepsin treatment
- Assay type: in vitro ADME
- Setup conditions: isolated enzyme pepsin; pepsin treated for 3 h; read-out RP-HPLC; Table S2
Where a SMILES comes first, the peptide text is derived from it.
Parameter measured: remaining at 3 h (%)

{"Compound": "CC[C@H](C)[C@H](NC(=O)[C@H](CCSC)NC=O)C(=O)N[C@H](C(=O)NCC(=O)N[C@@H](CC(N)=O)C(=O)N[C@@H](C)C(=O)N[C@@H](CC(=O)O)C(=O)NP(=O)(OCCCN)OC[C@H]1O[C@@H](n2cnc3c(N)ncnc32)[C@H](O)[C@@H]1O)[C@@H](C)O (stereo partly shown) [R2I] (HELM PEPTIDE1{[O=C[*:2]].M.I.T.G.N.A.[NCCCOP(=O)(NC(=O)[C@H](CC(=O)O)N[*:1])OC[C@H]1O[C@@H](n2cnc3c(N)ncnc32)[C@H](O)[C@@H]1O]}$$$$V2.0)", "Parameter measured": "remaining at 3 h", "Observed result": 91.7}
